Assayed System: PDE1B (Homo sapiens)
Method Summary: PDE1 inhibition assay (PDE1B), SPA with tritium labelled cAMP
Assay type: biochemical
Run Conditions: 15 nM tritium labelled cAMP, 1 hr at room temperature, SPA beads; read-out: PDE1B, IC50
Property Label: IC50 (nM)

| Compound | Assayed System | IC50 (nM) |
| --- | --- | --- |
| CCOc1ncccc1-c1cc(NCc2coc(C)n2)c2c(C(C)C)nn(C)c2n1 [Example 2] | PDE1B (Homo sapiens) | 15 |

(P) CCOc1ncccc1-c1cc(NCc2cccnc2C(F)(F)F)c2c(C(C)C)nc(C)n2n1 [Example 80]
(Q) CCOc1ncccc1-c1cc(NCc2cn[nH]c2)c2c(C(C)C)nc(C)n2n1 [Example 18]
(R) CCOc1ncccc1-c1cc(NCc2cnn(C)c2)c2c(C(C)C)nc(C)n2n1 [Example 22]
Write the entries in order, lowest recorded IC50 first. Order the labels as requested and list them. R, Q, P
(R: 1.8 nM, Q: 5.7 nM, P: 15 nM)

* * *

Assayed System: PDE1B (Homo sapiens, UniProt Q01064)
Sequence (Q01064 whole entry): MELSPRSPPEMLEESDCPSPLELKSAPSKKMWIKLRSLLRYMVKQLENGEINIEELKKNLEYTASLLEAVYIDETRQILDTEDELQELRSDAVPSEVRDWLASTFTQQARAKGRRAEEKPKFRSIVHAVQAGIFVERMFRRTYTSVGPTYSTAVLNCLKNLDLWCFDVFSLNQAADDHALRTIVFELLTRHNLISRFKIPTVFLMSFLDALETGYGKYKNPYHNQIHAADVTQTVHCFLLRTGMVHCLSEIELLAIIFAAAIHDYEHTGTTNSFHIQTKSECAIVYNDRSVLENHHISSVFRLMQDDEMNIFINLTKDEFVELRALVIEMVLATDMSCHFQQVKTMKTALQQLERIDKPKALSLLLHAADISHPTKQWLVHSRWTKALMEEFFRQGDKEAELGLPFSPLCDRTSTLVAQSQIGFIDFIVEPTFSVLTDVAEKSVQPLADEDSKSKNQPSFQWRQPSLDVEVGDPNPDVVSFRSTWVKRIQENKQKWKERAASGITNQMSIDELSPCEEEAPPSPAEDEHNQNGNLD
Method Summary: PDE1 inhibition assay (PDE1B), SPA with tritium labelled cAMP
Format: biochemical
Run Conditions: 15 nM tritium labelled cAMP, 1 hr at room temperature, SPA beads; read-out: PDE1B, IC50
pIC50: −log10 of the molar value.
Property Label: pIC50

| Molecule | pIC50 |
| --- | --- |
| CCCOc1ncccc1-c1cc(NCc2ncn(C)n2)c2c(C(C)C)nc(C)n2n1 | 9.57 |
| CCOc1ncccc1-c1cc(NCc2cncc(OC)c2)c2c(C(C)C)nc(C)n2n1 | 8.82 |
| CCOc1nnccc1-c1cc(NCc2cnn(C)c2)c2c(C(C)C)nc(C)n2n1 | 8.28 |
| CC(C)c1nn(C)c2nc(-c3cccn(C)c3=O)cc(NCc3ncn(C)n3)c12 | 7.28 |
| Cc1ncsc1-c1cc(NCc2ncn(C)n2)c2c(C(C)C)nn(C)c2n1 | 8.34 |
| CCOc1ncccc1-c1cc(NCc2cnc(C)o2)c2c(C(C)C)nc(C)n2n1 | 8.55 |

(1) CCCOc1ncccc1-c1cc(NCc2cnn(C)c2)c2c(C(C)C)nc(C)n2n1
(2) CCOc1ncccc1-c1cc(NCc2coc(C)n2)c2c(C(C)C)nc(C)n2n1
(3) CCOc1ncccc1-c1cc(NCc2ccnc(OC)c2)c2c(C(C)CC)nc(C)n2n1 (single isomer, unassigned; (-)) [Example 54]
Please produce an ascending ranking of these molecules based on pIC50. In your reply, arrange the labels in the requested order. 2, 3, 1

(I) CCOc1ncccc1-c1cc(NCc2ncn(C)n2)c2c(C(C)C)nn(C)c2n1
(II) CCOc1nnccc1-c1cc(NCc2ncn(C)n2)c2c(C(C)C)nn(C)c2n1
(III) CCOc1ncccc1-c1cc(NCc2ncc(F)cn2)c2c(C(C)C)nc(C)n2n1
Sort the molecules on pIC50; start with the lowest figure. Answer format: the labels, ordered as requested. III, II, I
(III: 7.77, II: 8.43, I: 9.47)

* * *

Assayed System: PDE1B (Homo sapiens)
Method Summary: PDE1 inhibition assay (PDE1B), SPA with tritium labelled cAMP
Type: biochemical
Run Conditions: 15 nM tritium labelled cAMP, 1 hr at room temperature, SPA beads; read-out: PDE1B, IC50
pIC50: −log10 of the molar value.
Property Label: pIC50

| Molecule | Numeric Result |
| --- | --- |
| CCOc1ncccc1-c1cc(NCc2ccnc(OC)c2)c2c(C(C)CC)nc(C)n2n1 (single isomer, unassigned; (+)) [Example 53] | 7.92 |

(P) CC(C)c1nn(C)c2nc(-c3cccs3)cc(NCc3ncn(C)n3)c12
(Q) CCCOc1ncccc1-c1cc(NCc2ncn(C)n2)c2c(C(C)C)nn(C)c2n1
When their pIC50 values are compared, which is larger, P or Q ? Record your answer as the label of the chosen record. Q
(Q: 9.38, P: 8.29)

(A) CCOc1ncccc1-c1cc(NCc2noc(C)n2)c2c(C(C)C)nn(C)c2n1
(B) CCOc1ncccc1-c1cc(NCc2ncccn2)c2c(C(C)C)nc(C)n2n1
Determine, for A and B , which has the greater value of pIC50. Answer = label. B
